- assayed-target: soluble gp41 MPER peptide RRR-(656-683)-RRR
- procedure-text: kinetic binding (ka/kd)
Would you mind telling me the reported Kd of each entry?
Numeric answer only, unit nM assumed.

What does the record list as Kd for K97A (heavy chain) (antibody, V domains shown) VH: EVQLVESGGGLVKPGGSLRLSCSASGFDFDNAWMTWVRQPPGKGLEWVGRITGPGEGWSVDYAAPVEGRFTISRLNSINFLYLEMNNLRMEDSGLYFCARTGAYYDFWSGYPPGEEYFQDWGRGTLVTVSS VL: SYELTQETGVSVALGRTVTITCRGDSLRSHYASWYQKKPGQAPILLFYGKNNRPSGVPDRFSGSASGNRASLTISGAQAEDDAEYYCSSRDKSGSRLSVFGGGTKLTVL ? 24.8

What does the record list as Kd for E100iA (heavy chain) (antibody, V domains shown) VH: EVQLVESGGGLVKPGGSLRLSCSASGFDFDNAWMTWVRQPPGKGLEWVGRITGPGEGWSVDYAAPVEGRFTISRLNSINFLYLEMNNLRMEDSGLYFCARTGKYYDFWSGYPPGAEYFQDWGRGTLVTVSS VL: SYELTQETGVSVALGRTVTITCRGDSLRSHYASWYQKKPGQAPILLFYGKNNRPSGVPDRFSGSASGNRASLTISGAQAEDDAEYYCSSRDKSGSRLSVFGGGTKLTVL ? 433

What does the record list as Kd for Y98A (heavy chain) (antibody, V domains shown) VH: EVQLVESGGGLVKPGGSLRLSCSASGFDFDNAWMTWVRQPPGKGLEWVGRITGPGEGWSVDYAAPVEGRFTISRLNSINFLYLEMNNLRMEDSGLYFCARTGKAYDFWSGYPPGEEYFQDWGRGTLVTVSS VL: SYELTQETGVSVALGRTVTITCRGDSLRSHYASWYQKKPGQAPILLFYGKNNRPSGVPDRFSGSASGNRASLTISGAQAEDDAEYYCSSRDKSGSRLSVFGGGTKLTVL ? 27
